- Test system: WT HIV-1NL4-BAL
- test: Drug susceptibility assay in TZM-bl cells
- Type: cell-based
- condition notes: Human immunodeficiency virus 1, BAL, Fig. 9B, read-out: average EC50
value type: EC50 (nM)
Could you give me the number in nM? Just the number is fine.

I have this compound here, Cc1cc(/C=C/C#N)cc(C)c1Nc1ccnc(Nc2ccc(C#N)cc2)n1 [RPV, rilpivirine] , and I need its recorded EC50.
0.34

###

- System: Y181V HIV-1CH185
- test: Drug susceptibility assay in TZM-bl cells
- Assay type: cell-based
- condition notes: Human immunodeficiency virus 1; TZM-bl cells; Fig. 9B
value type: pEC50
# pEC50 = -log10(concentration in molar units)

I have this molecule here, "Cc1cc(/C=C/C#N)cc(C)c1Nc1ccnc(Nc2ccc(C#N)cc2)n1" , and I need its recorded pEC50.
7.92
